Assay: Dissociation constant, pKa of the compound
reported_property: pKa

> print(dat)
             entry.smiles  reported.property  numeric.value
1  C[Si](C)(C)c1ccc(O)cc1                pKa           10.1

* * *

Assay: Octanol-water partition coefficient, log P of the compound by HPLC analysis
Rule: logP below 5 gives Condition met, anything at or above gives Condition not met.

> print(dat)
                               entry.smiles     classification
1                 CC[Si](CC)(CC)c1ccc(O)cc1  Condition not met
2                    C[Si](C)(C)c1ccc(O)cc1      Condition met
3                      CCC(C)(C)c1ccc(O)cc1      Condition met
4                   CC[Si](C)(C)c1ccc(O)cc1      Condition met
5                CC(C)(c1ccccc1)c1ccc(O)cc1      Condition met
6  Oc1ccc(C(c2ccccc2)(c2ccccc2)c2ccccc2)cc1  Condition not met
7  Oc1ccc([Si](c2ccccc2)(c2ccccc2)c2ccccc2)cc1  Condition not met
